Below: a set of entries, each annotated with reported IC50.
# Tested on: 186277-243-T-J2-PDC multi-cell spheroid viability
# Measurement Protocol: Anticancer human tumor 186277-243-T-J2-PDC patient-derived colon adenocarcinoma cell line growth inhibition [PI3K]
# Assay Conditions: curve of compound

| Compound | Result Type | Result |
| --- | --- | --- |
| Cn1cnc2c(F)c(Nc3ccc(Br)cc3Cl)c(C(=O)NOCCO)cc21 | IC50 | 193 nM [middle of 4 runs] |
| Cn1ncnc1[C@H]1c2n[nH]c(=O)c3cc(F)cc(c23)N[C@@H]1c1ccc(F)cc1 | IC50 | > 100 nM |
| C[C@@H](NC(=O)c1ncnc(N)c1Cl)c1ncc(C(=O)Nc2cc(C(F)(F)F)c(Cl)cn2)s1 | IC50 | > 10000 nM |
| C=CC(=O)N1CCN(c2nc(=O)n(-c3c(C)ccnc3C(C)C)c3nc(-c4c(O)cccc4F)c(F)cc23)C(C)C1 (centres undefined) | IC50 | > 10000 nM |
| CCCS(=O)(=O)Nc1ccc(F)c(C(=O)c2c[nH]c3ncc(-c4ccc(Cl)cc4)cc23)c1F | IC50 | 5.39 µM [middle of 4 runs] |
| Cn1nccc1Nc1nccc(-c2ccn(C(CO)c3ccc(Cl)c(F)c3)c(=O)c2)n1 (centres undefined) | IC50 | 2.35 µM [middle of 4 runs] |

Reported IC50 ( CC(C)NCC(C(=O)N1CCN(c2ncnc3c2C(C)CC3O)CC1)c1ccc(Cl)cc1 (centres undefined) ) = 1.99 µM [middle of 4 runs]

Reported IC50 ( CC(=O)c1c(C)c2cnc(Nc3ccc(N4CCNCC4)cn3)nc2n(C2CCCC2)c1=O ) = > 100 nM

Reported IC50 ( CCN1CCN(Cc2ccc(Nc3ncc(F)c(-c4cc(F)c5nc(C)n(C(C)C)c5c4)n3)nc2)CC1 ) = > 1000 nM

----------
# System: 186277-243-T-J2-PDC multi-cell spheroid viability
# Measurement Protocol: Anticancer human tumor 186277-243-T-J2-PDC cell line growth inhibition [PI3K];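 also: spheroids exposed to compounds for seven days before viability reading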;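 as to viability, T/C: 100% = DMSO vehicle control viability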
# Assay Conditions: second compound 0.01 µM; first compound 0.316 µM; stronger effect = lower value
Below: a set of entries, each annotated with reported viability, T/C.
Field format: number, assumed %, no unit text.

| Compound | viability, T/C [%] |
| --- | --- |
| C=CC(=O)N1CCN(c2nc(=O)n(-c3c(C)ccnc3C(C)C)c3nc(-c4c(O)cccc4F)c(F)cc23)C(C)C1 (stereo not drawn) + COc1c(OCCCN2CCOCC2)ccc2c3n(c(=NC(=O)c4cnc(N)nc4)nc12)CCN3 | 94.4 |
| CC1(C)CCC(Nc2ncc(C(F)(F)F)c(-c3c[nH]c4c(P(C)(C)=O)c(C#N)ccc34)n2)CN1 (stereo not drawn) + CC(Nc1ccc2c(c1)OCCn1cc(N3C(=O)OCC3C(F)F)nc1-2)C(N)=O | 55 |

Field: next compound
Measured on 186277-243-T-J2-PDC multi-cell spheroid viability, CC1(C)CCC(Nc2ncc(C(F)(F)F)c(-c3c[nH]c4c(P(C)(C)=O)c(C#N)ccc34)n2)CN1 (stereo not drawn) + COc1c(OCCCN2CCOCC2)ccc2c3n(c(=NC(=O)c4cnc(N)nc4)nc12)CCN3 has a documented viability, T/C of 50.8

----------
# Test system: 186277-243-T-J2-PDC multi-cell spheroid viability
# Measurement Protocol: Anticancer human tumor 186277-243-T-J2-PDC cell line growth inhibition [PI3K];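 also: spheroids exposed to compounds for seven days before viability reading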
# Assay Conditions: curve of first compound; second compound 0.0316 µM
# Text: Combinatorial screen of targeted agents with the PI3K inhibitors inavolisib, alpelisib, duvelisib, and copanlisib in multi-cell type tumor spheroids A high-throughput screen of multi-cell type tumor spheroids was designed to identify active combinations of targeted small molecules and PI3K pathway inhibitors. […] Compounds. […] If the clinical Cmax for an agent had not been determined, the highest concentration tested was 10 microM. […]
Below: a set of entries, each annotated with reported IC50.
Field format: number, assumed nM, no unit text.

Consider the worked cases shown below.
| Compound | Assay System | Unit Label | Quantitative Result |
| --- | --- | --- | --- |
| C#Cc1c(F)ccc2cc(O)cc(-c3ncc4c(N5CC6CCC(C5)N6)nc(OCC56CCCN5CC(F)C6)nc4c3F)c12 (stereo not given) + Cc1nc(NC(=O)N2CCCC2C(N)=O)sc1-c1ccnc(C(C)(C)C(F)(F)F)c1 | 186277-243-T-J2-PDC multi-cell spheroid viability | nM | 74.4 |
| CC1(C)CCC(CN2CCN(c3ccc(C(=O)NS(=O)(=O)c4ccc(NCC5CCOCC5)c([N+](=O)[O-])c4)c(Oc4cnc5[nH]ccc5c4)c3)CC2)=C(c2ccc(Cl)cc2)C1 + CC(Nc1ccc2c(c1)OCCn1cc(N3C(=O)OCC3C(F)F)nc1-2)C(N)=O | 186277-243-T-J2-PDC multi-cell spheroid viability | nM | 4360 |
| Cn1cnc2c(F)c(Nc3ccc(Br)cc3Cl)c(C(=O)NOCCO)cc21 + Cc1nc(NC(=O)N2CCCC2C(N)=O)sc1-c1ccnc(C(C)(C)C(F)(F)F)c1 | 186277-243-T-J2-PDC multi-cell spheroid viability | nM | 117 |
| C=CC(=O)N1CCN(c2nc(=O)n(-c3c(C)ccnc3C(C)C)c3nc(-c4c(O)cccc4F)c(F)cc23)C(C)C1 (stereo not given) + COc1c(OCCCN2CCOCC2)ccc2c3n(c(=NC(=O)c4cnc(N)nc4)nc12)CCN3 | 186277-243-T-J2-PDC multi-cell spheroid viability | nM | 1870 |

Field: next compound
Reported IC50 ( CCN1CCN(Cc2ccc(Nc3ncc(F)c(-c4cc(F)c5nc(C)n(C(C)C)c5c4)n3)nc2)CC1 + COc1c(OCCCN2CCOCC2)ccc2c3n(c(=NC(=O)c4cnc(N)nc4)nc12)CCN3 ) = 234

----------
# Test system: 186277-243-T-J2-PDC multi-cell spheroid viability
# Measurement Protocol: Anticancer human tumor 186277-243-T-J2-PDC cell line growth inhibition [PI3K];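 also: spheroids exposed to compounds for seven days before viability reading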;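 as to viability, T/C: 100% = DMSO vehicle control viability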
# Assay Conditions: second compound 0.316 µM; first compound 1 µM; stronger effect = lower value
# Excerpt: Combinatorial screen of targeted agents with the PI3K inhibitors inavolisib, alpelisib, duvelisib, and copanlisib in multi-cell type tumor spheroids A high-throughput screen of multi-cell type tumor spheroids was designed to identify active combinations of targeted small molecules and PI3K pathway inhibitors. […] Compounds. […] If the clinical Cmax for an agent had not been determined, the highest concentration tested was 10 microM. […]
Below: a set of entries, each annotated with reported viability, T/C.

| Compound | Assay System | Result |
| --- | --- | --- |
| C[C@@H](NC(=O)c1ncnc(N)c1Cl)c1ncc(C(=O)Nc2cc(C(F)(F)F)c(Cl)cn2)s1 + CC(Nc1ncnc2nc[nH]c12)c1cc2cccc(Cl)c2c(=O)n1-c1ccccc1 | 186277-243-T-J2-PDC multi-cell spheroid viability | 95% |
| CC(C)NCC(C(=O)N1CCN(c2ncnc3c2C(C)CC3O)CC1)c1ccc(Cl)cc1 (stereo not drawn) + CC(Nc1ncnc2nc[nH]c12)c1cc2cccc(Cl)c2c(=O)n1-c1ccccc1 | 186277-243-T-J2-PDC multi-cell spheroid viability | 48.9% |

Field: next compound
Reported viability, T/C ( Cn1ncc(Cl)c1-c1cc(C(=O)NC(CN)Cc2cccc(F)c2)sc1Cl (stereo not drawn) + CC(Nc1ncnc2nc[nH]c12)c1cc2cccc(Cl)c2c(=O)n1-c1ccccc1 ) = 48.8%

----------
# System: 186277-243-T-J2-PDC multi-cell spheroid viability
# Measurement Protocol: Anticancer human tumor 186277-243-T-J2-PDC cell line growth inhibition [PI3K]; active means viability on the fitted dose curve at most 10% of control; inactive means the rest;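 also: spheroids exposed to compounds for seven days before viability reading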
# Assay Conditions: compound 1 µM
Would you mind answering with one of these outcomes? active, inactive

Use these answered entries as a reference point.
| Compound | Assay System | Qualitative Label |
| --- | --- | --- |
| CNC(=O)c1ccc(N2C(=S)N(c3ccc(C#N)c(C(F)(F)F)c3)C(=O)C2(C)C)cc1F | 186277-243-T-J2-PDC multi-cell spheroid viability | inactive |
| C=CC(=O)N1CCN(c2nc(=O)n(-c3c(C)ccnc3C(C)C)c3nc(-c4c(O)cccc4F)c(F)cc23)C(C)C1 (stereo not given) | 186277-243-T-J2-PDC multi-cell spheroid viability | inactive |
| Cc1nc(NC(=O)N2CCCC2C(N)=O)sc1-c1ccnc(C(C)(C)C(F)(F)F)c1 (stereo not given) | 186277-243-T-J2-PDC multi-cell spheroid viability | inactive |
| CC1(C)CCC(CN2CCN(c3ccc(C(=O)NS(=O)(=O)c4ccc(NCC5CCOCC5)c([N+](=O)[O-])c4)c(Oc4cnc5[nH]ccc5c4)c3)CC2)=C(c2ccc(Cl)cc2)C1 | 186277-243-T-J2-PDC multi-cell spheroid viability | inactive |
| CCN1CCN(Cc2ccc(Nc3ncc(F)c(-c4cc(F)c5nc(C)n(C(C)C)c5c4)n3)nc2)CC1 | 186277-243-T-J2-PDC multi-cell spheroid viability | inactive |

q: Per the assay record, what outcome was assigned to CC(Nc1ccc2c(c1)OCCn1cc(N3C(=O)OCC3C(F)F)nc1-2)C(N)=O (stereo not given) ?
a: inactive

q: Per the assay record, what outcome was assigned to CC(C)NCC(C(=O)N1CCN(c2ncnc3c2C(C)CC3O)CC1)c1ccc(Cl)cc1 (stereo not given) ?
a: inactive

q: Per the assay record, what outcome was assigned to Cn1nccc1Nc1nccc(-c2ccn(C(CO)c3ccc(Cl)c(F)c3)c(=O)c2)n1 (stereo not given) ?
a: inactive

q: Per the assay record, what outcome was assigned to C#Cc1c(F)ccc2cc(O)cc(-c3ncc4c(N5CC6CCC(C5)N6)nc(OCC56CCCN5CC(F)C6)nc4c3F)c12 (stereo not given) ?
a: inactive

q: Per the assay record, what outcome was assigned to Cn1ncc(Cl)c1-c1cc(C(=O)NC(CN)Cc2cccc(F)c2)sc1Cl (stereo not given) ?
a: inactive

q: Per the assay record, what outcome was assigned to C[C@@H](NC(=O)c1ncnc(N)c1Cl)c1ncc(C(=O)Nc2cc(C(F)(F)F)c(Cl)cn2)s1 ?
a: inactive

q: Per the assay record, what outcome was assigned to CC1(C)CCC(Nc2ncc(C(F)(F)F)c(-c3c[nH]c4c(P(C)(C)=O)c(C#N)ccc34)n2)CN1 (stereo not given) ?
a: inactive

q: Per the assay record, what outcome was assigned to COc1c(OCCCN2CCOCC2)ccc2c3n(c(=NC(=O)c4cnc(N)nc4)nc12)CCN3 ?
a: active

q: Per the assay record, what outcome was assigned to CC(Nc1ncnc2nc[nH]c12)c1cc2cccc(Cl)c2c(=O)n1-c1ccccc1 (stereo not given) ?
a: inactive

q: Per the assay record, what outcome was assigned to CCCS(=O)(=O)Nc1ccc(F)c(C(=O)c2c[nH]c3ncc(-c4ccc(Cl)cc4)cc23)c1F ?
a: inactive
